All values here come from the emibetuzumab library of Makowski et al. (2022).

B1: VH:VL chains; a variant is named by its letters at X, in order (parent)
chain 1: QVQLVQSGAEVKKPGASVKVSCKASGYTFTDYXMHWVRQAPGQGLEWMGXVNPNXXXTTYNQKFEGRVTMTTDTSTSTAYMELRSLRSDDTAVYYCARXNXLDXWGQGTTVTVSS
chain 2: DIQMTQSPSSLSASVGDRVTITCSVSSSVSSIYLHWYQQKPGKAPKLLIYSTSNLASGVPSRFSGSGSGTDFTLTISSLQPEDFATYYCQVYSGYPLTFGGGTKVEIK

Variants of: B1
Assay: yeast display scFab, FACS + sequencing
Details: with MET
Some of the results follow. How many sequences the whole screen found active is unknown.
readoutLabel: antigen binding call

VKEKGAWY	no binding
DKEGGDLA	no binding
VTGEDDVV	no binding
YRGGASAA	binds
YRGRGSAF	binds
VARKGVGV	no binding
YRGGGSAA	binds
FRRGGAWD	binds

Measured antigen binding call of STAGSASD : no binding

Measured antigen binding call of VTTKSDLA : no binding

Measured antigen binding call of YKGKGAWY : binds

Measured antigen binding call of DRGGDAVV : no binding

Measured antigen binding call of SEARSDAV : no binding

Measured antigen binding call of DAGGGDVV : no binding

Measured antigen binding call of FTTRDDSD : no binding

Measured antigen binding call of DGGKNDGV : no binding

Measured antigen binding call of YARADAAA : no binding

Measured antigen binding call of YTAAADLV : no binding
